Experiment: budding yeast growth changes without added modifier – OD600, strain BY4716, 24 h, basal condition, primary screen (AID 1173)
Details: S. cerevisiae BY4716 growth, OD600, 24 h; higher = more signal, called active from +8 up or from −8 down
Grouping by measured z-score is done with the following cut points: 1 (below -1), 2 (-1 to below -0.06), 3 (-0.06 or more)

compound: CCCCC(=O)N(Cc1ccccc1F)[C@@H]1CC(C(=O)NCCO)=C[C@H](Oc2c(I)cc(CO)cc2OC)[C@H]1O
className: 1
//
compound: C#C[C@H]1Oc2ccccc2S(=O)(=O)N2CCC[C@@H]12
className: 2
//
compound: C=CCC(OC(C)=O)[C@@H]1[C@@H](N(Cc2cc3ccccc3o2)C(=O)c2ccc(C)cc2)c2cc(OCCCO)ccc2N1C(=O)c1ccc(-c2ccccc2)cc1 (stereo partly drawn)
className: 1
//
compound: CN(C)CCCCCCNC(=O)[C@@H]1C[C@@H]2C(=O)N[C@@H](Cc3ccccc3)C(=O)N2[C@@H]1c1cccc(OCCO)c1
className: 2
//
compound: CCCCCCCCCCC(O)C1C=CC2C(=O)N(c3ccccc3)C(=O)C2N1Nc1ccc([N+](=O)[O-])cc1 (stereo not drawn)
className: 3
//
compound: CC1CC/C=C\[C@H]2OC34C=CCN(CCN5CCOCC5)C(=O)[C@H]3N(CCCCCO)C(=O)[C@@H]4C2C(=O)O1 (stereo partly drawn)
className: 2
//
compound: C=CCN1C(=O)[C@]2(COC(c3ccc(OCCCO)cc3)=N2)Cc2ccccc21
className: 1
//
compound: [N-]=[N+]=NCc1ccccc1[C@H]1OC(c2ccc(OCCCO)cc2)=N[C@@]1(Cc1ccccc1)C(=O)O
className: 1
//
compound: C#C[C@H](O[Si](C#CCCCCCC)(C(C)C)C(C)C)c1ccccc1
className: 3
//
compound: CC(C)[Si]1(C(C)C)O[C@@H](c2ccccc2)c2cc(-c3ccc(-c4ccc(Cl)c(Cl)c4)o3)nc(CCc3ccccc3)c21
className: 1

Qu. Hi, small favor: classify CCCC[C@H]1OB(O)C[C@H]2C1=C(C)Cn1c(=O)n(-c3ccccc3)c(=O)n12 by its z-score when you get a moment.
Ans. 3

Qu. Try CN(C)CCCC[C@@H]1NC(=O)[C@@H]2C[C@H](C(=O)NCCCCCN)[C@H](c3ccc(O)cc3)N2C1=O next.
Ans. 2

Qu. Try OCCCc1cc[n+](Cc2cccc(OC(F)(F)F)c2)cc1 next.
Ans. 1

Qu. Try Cc1ccc(S[C@]2(C(=O)NCC(C)C)CC(=O)N(Cc3ccccc3)[C@@H]2c2ccc(CO)cc2)cc1 next.
Ans. 2

Qu. Try C=C(C)[C@@H]1CC=C(C(O)C2C=CC3C(=O)N(Cc4ccccc4)C(=O)C3N2n2cnnc2)CC1 (stereo partly drawn) next.
Ans. 3

Qu. Try COC(=O)C(CC#Cc1ccc2c(c1)[C@]1(C(=O)N2)[C@H](C(=O)N2CCCCCCC2)[C@H]2C(=O)O[C@H](c3ccccc3)[C@H](c3ccccc3)N2[C@@H]1c1ccccc1OCCO)C(=O)OC next.
Ans. 3
